Molecular target: mouse P2RY14 (Mus musculus)
Construct: expressed in transfected cells
Sequence (Q9ESG6 1-338): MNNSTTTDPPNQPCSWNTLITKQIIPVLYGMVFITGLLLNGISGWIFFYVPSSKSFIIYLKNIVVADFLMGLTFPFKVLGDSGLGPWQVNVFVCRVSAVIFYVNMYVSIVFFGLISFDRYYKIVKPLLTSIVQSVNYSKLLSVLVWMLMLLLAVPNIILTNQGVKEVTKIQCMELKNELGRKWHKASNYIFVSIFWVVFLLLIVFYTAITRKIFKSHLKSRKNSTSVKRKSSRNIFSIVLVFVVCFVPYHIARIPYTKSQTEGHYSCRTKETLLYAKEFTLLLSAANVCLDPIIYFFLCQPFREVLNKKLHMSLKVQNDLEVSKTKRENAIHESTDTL
Test: FLIPR whole cell Ca2+ agonist assay, HEK cells expressing mouse P2RY14 and Gqi5
Type: cell-based
property.measured: activation of P2RY14 (Ca2+ signaling)

* O=C(O)[C@H]1O[C@H](OP(=O)(O)OP(=O)(O)OC[C@H]2O[C@@H](n3ccc(=O)[nH]c3=O)[C@H](O)[C@@H]2O)[C@H](O)[C@@H](O)[C@@H]1O | activated
* O=c1ccn([C@@H]2O[C@H](COP(=O)(O)O)[C@@H](O)[C@H]2O)c(=O)[nH]1 | activated
* O=c1ccn([C@@H]2O[C@H](COP(=O)(O)OP(=O)(O)O)[C@@H](O)[C@H]2O)c(=O)[nH]1 | activated
